- Test system: PPARg:RXRa (NR concentration 180 nM, RXRa partner concentration 90 nM)
- METHOD_DESCRIPTION: PBM binding z-score (relative to random genomic background probes); higher = stronger binding; sequences stand for … in GC…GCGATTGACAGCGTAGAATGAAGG
QUANTITY: PBM binding z-score
Please give the numeric answer without any surrounding text.

TGAATGAGGTTAAAGATGAGGGAACGTGGCGTCG	3.77
GGAACGAGGGCATTCGAGTTGATTGCATGGCGAT	0.653
TGTCAAAGTTCAAACGTAACGTAAGTATCCACAC	8.29

Continue with the sequence presented below.
[ask] Please give the measured PBM binding z-score for this sequence: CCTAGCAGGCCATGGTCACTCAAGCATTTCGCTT
[reply] -0.143

----------
Property: PBM binding z-score; scope: individual sequences
- System: LXRb:RXRa (NR concentration 270 nM, RXRa partner concentration 90 nM)
- METHOD_DESCRIPTION: PBM binding z-score (relative to random genomic background probes); higher = stronger binding; sequences stand for … in GC…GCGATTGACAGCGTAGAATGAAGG

For orientation, consider the following solved cases.
AATACAGCGTCACTAGGCCAGAGTAGGTACGAAT	-0.808
TAGCCTATGTCATTCAGGGGCCAGTATAGAAAGC	-0.0773
AGTCAAAGTTCAGGACCAGGTAACGTAAAGCACG	1.72

[ask] Please give the measured PBM binding z-score for this sequence: CCTATTAGTTGACCATAAGGGCGACCGAAGCTCG
[reply] 0.554

[ask] Please give the measured PBM binding z-score for this sequence: ACTAGCAGGCCACGGGTCACTCAAGATTAGTCCG
[reply] 1.3

[ask] Please give the measured PBM binding z-score for this sequence: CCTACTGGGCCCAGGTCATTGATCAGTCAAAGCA
[reply] 1.88

[ask] Please give the measured PBM binding z-score for this sequence: CCAGACATGTGAGAAGGTAACTCAGCCTCGATTA
[reply] -0.057

[ask] Please give the measured PBM binding z-score for this sequence: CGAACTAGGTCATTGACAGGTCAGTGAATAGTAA
[reply] 3.2

[ask] Please give the measured PBM binding z-score for this sequence: GTACAAAGGTGAATAGGTCGTTGATGAGTAGGCG
[reply] 1.78

[ask] Please give the measured PBM binding z-score for this sequence: TCATGTAGATCAAGCAGGTTAAGAAAGCCTGAGT
[reply] 0.774

----------
- Test system: VDR homodimer (NR concentration 270 nM)
- METHOD_DESCRIPTION: PBM binding z-score (relative to random genomic background probes); higher = stronger binding; sequences stand for … in GC…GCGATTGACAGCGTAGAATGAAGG
Property: PBM binding z-score; scope: individual sequences
Please give the numeric answer without any surrounding text.

For orientation, consider the following solved cases.
CAAACTAGGTCAAGGTGAAAGTCGGTTTGTGCCA	0.978
GCTGCTAGGTCAACTGACGGTCAGCTAAAGCTCG	-0.00537
CCTTACGGGTCACGAGGTTATAGCTCGACGAGCG	1.76
AGAATGAGGTTATTAAGATCATGGAATTGCGGTC	1.5
CATACAGGGTCAGCTAGGCCAGAGGAGGGACGGC	1.36
TCGAGTAGGTTACCAATGGGGCCTTCAGCTTTCT	-0.944
CGTCCAAGTTCAAAGGTCAGTGAAGAGATGACGG	5.47
AATACAGGGTCACTAGGGCAGAGTAGGTACGAAT	2.98
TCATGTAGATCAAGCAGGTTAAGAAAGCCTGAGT	0.0758
CGAACGAGGGCATGAGTTGATAACAAATGCCGAT	1.48

[ask] Please give the measured PBM binding z-score for this sequence: AGAAAGAGGGCACGCTGAGTTGATAGCAGAGTAG
[reply] 1.23

[ask] Please give the measured PBM binding z-score for this sequence: CCTAGCAGGCCAATATGGGTCACTCAAGGCTTGA
[reply] -0.211

[ask] Please give the measured PBM binding z-score for this sequence: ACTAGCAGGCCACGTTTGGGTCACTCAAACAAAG
[reply] -0.0731

[ask] Please give the measured PBM binding z-score for this sequence: ATATGAAGGTTAGCTGGGGTCATTCAGACTAGGC
[reply] 5.65

[ask] Please give the measured PBM binding z-score for this sequence: CTAACTAGGTCAGAACAGGACAGTGAAGGATGAT
[reply] -0.144
